Values were extracted from the supplement of paper PMC5752671.

Some compounds, each annotated with its measured area under dose-response curve.
system: MOLM/16; assay: area under dose-response curve (cell viability) (AUC (arbitrary, % viability x log concentration)); higher = less sensitive (more viable); conditions: 4 days
Where a name gives a salt, the structure may show the parent alone.

compound | area under dose-response curve
FC(F)c1nc2ccccc2n1-c1nc(N2CCOCC2)nc(N2CCOCC2)n1 [ZSTK-474] | 515
COc1cc(Nc2c(C#N)cnc3cc(OCCCN4CCN(C)CC4)c(OC)cc23)c(Cl)cc1Cl [SKI-606] | 452
CNC(=O)c1cc(Oc2ccc(NC(=O)Nc3ccc(Cl)c(C(F)(F)F)c3)cc2)ccn1 [Sorafenib] | 537
CN(Cc1cnc2nc(N)nc(N)c2n1)c1ccc(C(=O)N[C@@H](CCC(=O)O)C(=O)O)cc1 [Methotrexate] | 573
Nc1ccn([C@@H]2O[C@H](CO)[C@@H](O)[C@@H]2O)c(=O)n1 [Cytarabine HCl] | 395
c1cc(-c2sc(-c3ccncc3)c(-c3ccncc3)c2-c2ccncc2)ccn1 [GANT58] | 611
COc1cc([C@@H]2c3cc4c(cc3[C@@H](O[C@@H]3O[C@@H]5CO[C@@H](C)O[C@H]5[C@H](O)[C@H]3O)[C@H]3COC(=O)[C@H]23)OCO4)cc(OC)c1O [Etoposide] | 467
O=C(NOC[C@H](O)CO)c1ccc(F)c(F)c1Nc1ccc(I)cc1F | 350

----------
test system: OCI-AML2; assay: IC50 (cell viability) (log10 M); conditions: 4 days
Where a name gives a salt, the structure may show the parent alone.

compound | censorSymbol | IC50 (log10 M)
CO[C@H]1C[C@@H]2CC[C@@H](C)[C@@](O)(O2)C(=O)C(=O)N2CCCC[C@H]2C(=O)O[C@H]([C@H](C)C[C@@H]2CC[C@@H](OCCO)[C@H](OC)C2)CC(=O)[C@H](C)/C=C(\C)[C@@H](O)[C@@H](OC)C(=O)[C@H](C)C[C@H](C)/C=C/C=C/C=C/1C | = | -5.02
C[C@]1(O)C[C@@H](c2nc(-c3ccc4ccc(-c5ccccc5)nc4c3)c3c(N)nccn32)C1 | = | -5.38
Nc1ccn([C@@H]2O[C@H](CO)[C@@H](O)C2(F)F)c(=O)n1 [Gemcitabine HCl] | < | -8.48
Cc1cc(C(C)Nc2ccccc2)c2nc(N3CCOCC3)cc(=O)n2c1 (stereo unspecified) | > | -5
CN(Cc1cnc2nc(N)nc(N)c2n1)c1ccc(C(=O)N[C@@H](CCC(=O)O)C(=O)O)cc1 [Methotrexate] | < | -8.48
COc1cc(F)c(F)c(Nc2ccc(I)cc2F)c1NS(=O)(=O)C1(C[C@H](O)CO)CC1 | = | -8.07
NC(=O)c1ccc2nc(-c3ccc(Oc4ccc(Cl)cc4)cc3)[nH]c2c1 | > | -5
COc1ccc2c3n(c(=NC(=O)c4cccnc4)nc2c1OC)CCN3 | > | -5
Oc1cccc(-c2nc(N3CCOCC3)c3oc4ncccc4c3n2)c1 | = | -6.15
S=c1[nH]cnc2nc[nH]c12 | = | -5.74
Nc1nc(F)nc2c1ncn2[C@@H]1O[C@H](CO)[C@@H](O)[C@@H]1O | = | -5.56
CSCC[C@H](NC(=O)c1ccc(NC[C@@H](N)CS)cc1-c1ccccc1)C(=O)O | > | -5
Cc1cnc(Nc2ccc(OCCN3CCCC3)cc2)nc1Nc1cccc(S(=O)(=O)NC(C)(C)C)c1 | = | -6.08
COc1cc(Nc2ncc3c(n2)-c2ccc(Cl)cc2C(c2c(F)cccc2OC)=NC3)ccc1C(=O)O | = | -7.51
Nc1nc(Cl)nc2c1ncn2[C@H]1C[C@H](O)[C@@H](CO)O1 | < | -8.48
COC(=O)c1ccc2c(c1)NC(=O)/C2=C(\Nc1ccc(N(C)C(=O)CN2CCN(C)CC2)cc1)c1ccccc1 | > | -5
